Target: IL-2Rγc subunit (Homo sapiens)
Construct: Fc; purchased ACRObiosystems, Inc. ILG-H5256
Sequence (P31785 23-254): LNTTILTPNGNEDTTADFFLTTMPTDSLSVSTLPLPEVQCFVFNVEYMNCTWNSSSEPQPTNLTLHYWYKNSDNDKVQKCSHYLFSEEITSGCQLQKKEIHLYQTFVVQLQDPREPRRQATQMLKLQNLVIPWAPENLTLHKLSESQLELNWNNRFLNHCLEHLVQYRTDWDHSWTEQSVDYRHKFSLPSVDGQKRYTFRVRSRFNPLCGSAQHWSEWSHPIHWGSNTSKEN
Assay: competitive binding of synthetic peptides against phage clones on IL-2Rγc
Details: phage family 1B
readout-type: competition with phage clone peptide SEQ ID NO 224

Exercise: Entry under review: 948 (SLLKCYNASTCASVF) [Peptide 948] . Reported competition with phage clone peptide SEQ ID NO 224?
Solution: −

Exercise: Entry under review: 58 (YDCRIAQVGELCDL) [Peptide 58] . Reported competition with phage clone peptide SEQ ID NO 224?
Solution: −

----------
Target: IL-2Rγc subunit (Homo sapiens)
Construct: Fc; purchased ACRObiosystems, Inc. ILG-H5256
Sequence (P31785 23-254): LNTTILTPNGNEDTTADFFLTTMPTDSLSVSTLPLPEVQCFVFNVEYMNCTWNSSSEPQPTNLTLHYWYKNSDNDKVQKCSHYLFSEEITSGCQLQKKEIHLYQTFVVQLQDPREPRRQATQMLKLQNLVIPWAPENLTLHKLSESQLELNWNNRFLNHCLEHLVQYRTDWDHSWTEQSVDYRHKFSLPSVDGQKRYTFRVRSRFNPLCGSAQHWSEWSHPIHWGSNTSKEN
Assay: competitive binding of synthetic peptides against phage clones on IL-2Rγc
Conditions: phage family 1A
Description: Representative phage clones displaying peptides from IL-2Rβ ligand families were bound to the extracellular domain (ECD) of IL-2Rβ immobilized in microtiter wells. […] Phage binding to the immobilized IL-2Rβ ECD was detected by staining with antibody against phage coat proteins (anti-phage Ab), staining with labeled secondary antibody against the anti-phage Ab, and scored by reading OD in the microtiter plate optical reader. […]
readout-type: competition with phage clone peptide SEQ ID NO 198

Exercise: Entry under review: 948 (SLLKCYNASTCASVF) [Peptide 948] . Reported competition with phage clone peptide SEQ ID NO 198?
Solution: −^2

Exercise: Entry under review: 58 (YDCRIAQVGELCDL) [Peptide 58] . Reported competition with phage clone peptide SEQ ID NO 198?
Solution: −

----------
Target: IL-2Rγc subunit (Homo sapiens)
Construct: Fc; purchased ACRObiosystems, Inc. ILG-H5256
Sequence (P31785 23-254): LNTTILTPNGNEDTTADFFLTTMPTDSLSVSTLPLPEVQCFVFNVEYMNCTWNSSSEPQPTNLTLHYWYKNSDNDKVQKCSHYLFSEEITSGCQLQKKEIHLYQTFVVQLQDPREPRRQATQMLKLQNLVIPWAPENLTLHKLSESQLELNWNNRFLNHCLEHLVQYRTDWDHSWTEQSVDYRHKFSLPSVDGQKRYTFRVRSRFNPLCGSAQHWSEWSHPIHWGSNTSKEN
Test: competitive binding of synthetic peptides against phage clones on IL-2Rγc
Details: phage family 3
readout-type: competition with phage clone peptide SEQ ID NO 248

Exercise: Entry under review: 948 (SLLKCYNASTCASVF) [Peptide 948] . Reported competition with phage clone peptide SEQ ID NO 248?
Solution: −

Exercise: Entry under review: 58 (YDCRIAQVGELCDL) [Peptide 58] . Reported competition with phage clone peptide SEQ ID NO 248?
Solution: −

----------
Biological target: extracellular domain (ECD) of IL-2Rβ (Homo sapiens)
Construct: Fc; purchased ACRObiosystems, Inc. ILB-H5253
Sequence (P14784 27-239): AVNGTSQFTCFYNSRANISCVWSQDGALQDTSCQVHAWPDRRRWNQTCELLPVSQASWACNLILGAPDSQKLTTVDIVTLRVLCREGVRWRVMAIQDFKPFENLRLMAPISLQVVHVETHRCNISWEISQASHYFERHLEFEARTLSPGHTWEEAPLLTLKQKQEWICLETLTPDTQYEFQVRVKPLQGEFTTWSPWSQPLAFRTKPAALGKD
Test: competitive binding of synthetic peptides against phage clones on IL-2Rβ
Details: phage family 2A
readout-type: competition with phage clone peptide SEQ ID NO: 170

Exercise: Entry under review: 224 (DCSMWEGVELCW) [Peptide 224] . Reported competition with phage clone peptide SEQ ID NO: 170?
Solution: −

Exercise: Entry under review: 1044 (RSCYYKRPRLWCSE) [Peptide 1044] . Reported competition with phage clone peptide SEQ ID NO: 170?
Solution: −

----------
Biological target: extracellular domain (ECD) of IL-2Rβ (Homo sapiens, UniProt P14784)
Construct: Fc; purchased ACRObiosystems, Inc. ILB-H5253
Sequence (P14784 27-239): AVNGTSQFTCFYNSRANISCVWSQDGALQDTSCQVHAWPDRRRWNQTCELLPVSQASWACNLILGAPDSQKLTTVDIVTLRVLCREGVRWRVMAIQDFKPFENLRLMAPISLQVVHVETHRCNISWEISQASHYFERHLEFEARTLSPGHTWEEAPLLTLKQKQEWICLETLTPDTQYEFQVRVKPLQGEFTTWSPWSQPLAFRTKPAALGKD
Assay: competitive binding of synthetic peptides against phage clones on IL-2Rβ
Details: phage family 1
readout-type: competition with phage clone peptide SEQ ID NO: 58

Exercise: Entry under review: 224 (DCSMWEGVELCW) [Peptide 224] . Reported competition with phage clone peptide SEQ ID NO: 58?
Solution: −

Exercise: Entry under review: 1044 (RSCYYKRPRLWCSE) [Peptide 1044] . Reported competition with phage clone peptide SEQ ID NO: 58?
Solution: −^2

----------
Biological target: extracellular domain (ECD) of IL-2Rβ (Homo sapiens, UniProt P14784)
Construct: Fc; purchased ACRObiosystems, Inc. ILB-H5253
Sequence (P14784 27-239): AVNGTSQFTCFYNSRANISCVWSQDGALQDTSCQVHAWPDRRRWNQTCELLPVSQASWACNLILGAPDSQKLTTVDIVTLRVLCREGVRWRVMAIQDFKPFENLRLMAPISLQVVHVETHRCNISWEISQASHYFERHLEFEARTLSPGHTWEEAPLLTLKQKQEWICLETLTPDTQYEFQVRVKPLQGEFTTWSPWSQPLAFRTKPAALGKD
Test: competitive binding of synthetic peptides against phage clones on IL-2Rβ
Details: phage family 2C
readout-type: competition with phage clone peptide SEQ ID NO: 1034

Exercise: Entry under review: 224 (DCSMWEGVELCW) [Peptide 224] . Reported competition with phage clone peptide SEQ ID NO: 1034?
Solution: −

Exercise: Entry under review: 1044 (RSCYYKRPRLWCSE) [Peptide 1044] . Reported competition with phage clone peptide SEQ ID NO: 1034?
Solution: −

----------
Target: IL-2Rγc subunit (Homo sapiens, UniProt P31785)
Construct: Fc; purchased ACRObiosystems, Inc. ILG-H5256
Sequence (P31785 23-254): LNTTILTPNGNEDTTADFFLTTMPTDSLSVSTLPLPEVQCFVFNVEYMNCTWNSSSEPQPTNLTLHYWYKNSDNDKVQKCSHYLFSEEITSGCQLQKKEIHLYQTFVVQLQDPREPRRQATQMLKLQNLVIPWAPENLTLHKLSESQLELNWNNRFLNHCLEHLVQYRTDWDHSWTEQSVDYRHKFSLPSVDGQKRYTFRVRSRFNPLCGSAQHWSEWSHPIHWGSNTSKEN
Assay: competitive binding of synthetic peptides against phage clones on IL-2Rγc
Settings: phage family 4
readout-type: competition with phage clone peptide SEQ ID NO 266

Exercise: Entry under review: 948 (SLLKCYNASTCASVF) [Peptide 948] . Reported competition with phage clone peptide SEQ ID NO 266?
Solution: −

Exercise: Entry under review: 58 (YDCRIAQVGELCDL) [Peptide 58] . Reported competition with phage clone peptide SEQ ID NO 266?
Solution: −

----------
Target: extracellular domain (ECD) of IL-2Rβ (Homo sapiens, UniProt P14784)
Construct: Fc; purchased ACRObiosystems, Inc. ILB-H5253
Sequence (P14784 27-239): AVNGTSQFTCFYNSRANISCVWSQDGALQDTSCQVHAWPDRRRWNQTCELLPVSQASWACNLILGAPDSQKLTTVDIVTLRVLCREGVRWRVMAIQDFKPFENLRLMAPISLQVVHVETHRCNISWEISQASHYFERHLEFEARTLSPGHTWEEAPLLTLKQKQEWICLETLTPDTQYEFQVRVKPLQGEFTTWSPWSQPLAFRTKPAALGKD
Assay: competitive binding of synthetic peptides against phage clones on IL-2Rβ
Conditions: phage family 4
Source text: Representative phage clones displaying peptides from IL-2Rβ ligand families were bound to the extracellular domain (ECD) of IL-2Rβ immobilized in microtiter wells. […] Phage binding to the immobilized IL-2Rβ ECD was detected by staining with antibody against phage coat proteins (anti-phage Ab), staining with labeled secondary antibody against the anti-phage Ab, and scored by reading OD in the microtiter plate optical reader. […]
readout-type: competition with phage clone peptide SEQ ID NO: 1044

Exercise: Entry under review: 58 (YDCRIAQVGELCDL) [Peptide 58] . Reported competition with phage clone peptide SEQ ID NO: 1044?
Solution: −

Exercise: Entry under review: 224 (DCSMWEGVELCW) [Peptide 224] . Reported competition with phage clone peptide SEQ ID NO: 1044?
Solution: −

Exercise: Entry under review: 1044 (RSCYYKRPRLWCSE) [Peptide 1044] . Reported competition with phage clone peptide SEQ ID NO: 1044?
Solution: −

Exercise: Entry under review: 169 (NMCLVGDYWPSCQI) [Peptide 169] . Reported competition with phage clone peptide SEQ ID NO: 1044?
Solution: −

Could you now consider this next substance?
Exercise: Entry under review: 1042 (CYEVGDYCQSPL) [Peptide 1042] . Reported competition with phage clone peptide SEQ ID NO: 1044?
Solution: −

This collection of values is drawn from patent US11548914B2.
